Data provenance is patent US20250011413A1.

Molecular target: T1, PF4/heparin complex (human PF4 complexed with heparin) (human, UniProt P02776 32-101)
T1 sequence: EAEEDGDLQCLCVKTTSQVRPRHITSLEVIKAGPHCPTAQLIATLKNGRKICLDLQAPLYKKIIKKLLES
Assay: cell-based or functional assay
Label Satisfied for high-side % inhibition of 14C-serotonin release (SRA), HIT-Positive Patient #2 serum, scFv 75 µg/mL (at or above 20%) and Not satisfied for low-side % inhibition of 14C-serotonin release (SRA), HIT-Positive Patient #2 serum, scFv 75 µg/mL (below it).

Binder	Label
Mutant B scFv, scFv(R18K, N152K, D180N) (scFv, VL-linker-VH; histidine-tagged, from E. coli BL21; also called Mut B; not shown: histidine tag from the pADL-22c vector) scFv: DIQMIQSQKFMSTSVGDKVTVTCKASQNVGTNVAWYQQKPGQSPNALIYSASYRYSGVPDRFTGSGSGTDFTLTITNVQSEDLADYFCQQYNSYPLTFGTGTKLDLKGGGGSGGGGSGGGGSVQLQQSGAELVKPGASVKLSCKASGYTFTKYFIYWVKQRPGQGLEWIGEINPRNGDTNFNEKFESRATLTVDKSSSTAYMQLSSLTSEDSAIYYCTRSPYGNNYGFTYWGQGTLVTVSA	Not satisfied
Wildtype scFv (KKO-derived single chain variable fragment) (scFv, VL-(G4S)3 linker-VH; expressed in E. coli BL21 from pADL-22c, purified on Ni-NTA as histidine-tagged scFv, about 28 kDa; also called WT; KKO-scFv; not shown: histidine tag from the pADL-22c vector) scFv: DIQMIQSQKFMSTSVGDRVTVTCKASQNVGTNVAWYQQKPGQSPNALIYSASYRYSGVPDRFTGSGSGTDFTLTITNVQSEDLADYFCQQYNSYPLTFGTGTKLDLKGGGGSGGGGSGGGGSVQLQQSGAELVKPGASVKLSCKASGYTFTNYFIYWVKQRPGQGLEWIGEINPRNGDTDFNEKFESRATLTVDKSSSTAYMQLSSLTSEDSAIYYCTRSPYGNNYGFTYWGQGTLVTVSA	Not satisfied
Mutant C scFv, scFv(S50N, Y53H) (scFv, VL-linker-VH; histidine-tagged, from E. coli BL21; also called Mut C; not shown: histidine tag from the pADL-22c vector) scFv: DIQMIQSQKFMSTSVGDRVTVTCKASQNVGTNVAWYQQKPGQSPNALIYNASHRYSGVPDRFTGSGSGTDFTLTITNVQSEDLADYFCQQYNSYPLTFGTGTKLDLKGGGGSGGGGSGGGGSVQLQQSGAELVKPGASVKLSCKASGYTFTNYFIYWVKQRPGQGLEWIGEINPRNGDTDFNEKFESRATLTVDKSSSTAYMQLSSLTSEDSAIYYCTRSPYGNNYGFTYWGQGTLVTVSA	Satisfied
Mutant D scFv, scFv(Y156H) (scFv, VL-linker-VH; histidine-tagged, from E. coli BL21; also called Mut D; not shown: histidine tag from the pADL-22c vector) scFv: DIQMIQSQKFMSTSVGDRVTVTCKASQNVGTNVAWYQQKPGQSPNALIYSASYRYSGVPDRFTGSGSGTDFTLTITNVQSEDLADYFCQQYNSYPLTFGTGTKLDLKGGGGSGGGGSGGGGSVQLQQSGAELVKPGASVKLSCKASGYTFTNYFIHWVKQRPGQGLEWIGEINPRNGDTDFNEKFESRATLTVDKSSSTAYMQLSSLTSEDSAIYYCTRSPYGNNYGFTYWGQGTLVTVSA	Not satisfied
Mutant E scFv, scFv(Y156H, D180G, Q233P) (scFv, VL-linker-VH; histidine-tagged, from E. coli BL21; also called Mut E; not shown: histidine tag from the pADL-22c vector) scFv: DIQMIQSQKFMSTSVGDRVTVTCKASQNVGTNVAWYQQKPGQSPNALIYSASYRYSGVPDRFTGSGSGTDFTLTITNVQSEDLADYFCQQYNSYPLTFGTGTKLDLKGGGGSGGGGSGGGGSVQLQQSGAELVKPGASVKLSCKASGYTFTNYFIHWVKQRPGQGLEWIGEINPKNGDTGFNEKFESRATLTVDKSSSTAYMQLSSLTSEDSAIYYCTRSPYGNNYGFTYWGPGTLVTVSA	Not satisfied
